Ref: patent EP1166781A1

IC50 overview
- target-under-test: proteasome (Homo sapiens, UniProt P28074)
- Construct: The obtained high molecular fraction (molecular weight >500K) was used as an enzyme solution for the detection of proteasome activity; endogenous in cells; host or cells: HeLa S3 cells: homogenate, 100,000G supernatant, >500K fraction from Centricon-500
- assay-protocol: Proteasome inhibitory activity (Suc-Leu-Leu-Val-Tyr-AMC cleavage, crude enzyme solution from HeLa S3 cell extract)
- Format: biochemical
- Description: 1 x 10^9 of HeLa S3 cells were dispersed in 5 ml of the buffer A [20 mmol/L of Tris (pH 7.5), 2 mmol/L of ATP, 5 mmol/L of MgCl2, 1 mmol/L of dithiothreitol (DTT)], and then homogenized at 4°C. The supernatant centrifuged at 100,000G was concentrated by a Centricon-500 (supplied by Amicon) and diluted with 2.5 ml of the buffer B [25 mmol/L of Tris/HCl (pH 7.5), 2 mmol/L of ATP, 1 mmol/L of DTT, 20% of glycerol]. […]
measured-property: IC50

>>> df
                                   compound                         target_under_test  measured_property  test_result
0  CCCCNC(=O)C(CC1CC1NC(=O)C1OC(=O)C1C(C)CC)NC(=O)C(C)NC(=O)OC(C)(C)C (stereo not drawn) [Compound 24]  proteasome (Homo sapiens, UniProt P28074)               IC50     0.015 µM
1  CCC(C)C1C(=O)OC1C(=O)NC1CC1CC(NC(=O)C(C)NC(=O)OC(C)(C)C)C(=O)NNc1ccccc1 (stereo not drawn) [Compound 23]  proteasome (Homo sapiens, UniProt P28074)               IC50     0.017 µM
2  CCC(C)C1C(=O)OC1C(=O)NCCCC(NC(=O)C(C)NC(=O)OC(C)(C)C)C(=O)OCc1ccccc1 (stereo not drawn) [Compound 45]  proteasome (Homo sapiens, UniProt P28074)               IC50     0.006 µM
